- EXPERIMENTAL DETAILS: Neurotoxicity in ip dosed Swiss albino mouse measured during phase 2 trials by rotarod test
- Assay type: toxicity, organism-based
- TEST PARAMETERS: in vivo
OBSERVED PROPERTY: TD50 (mg/kg)
Numbers only, in mg/kg.

Worked cases, answers included:
NC1NC(=S)NN=C1n1c(-c2ccccc2)c(S(N)(=O)=O)c2cc(F)ccc21 (configuration not stated) :: 225
NC1NC(=S)NN=C1n1c(-c2ccccc2)c(C(=O)O)c2cc(C(F)(F)F)ccc21 (configuration not stated) :: 100
NC1NC(=S)NN=C1n1c(-c2ccccc2)c(S(N)(=O)=O)c2cc(Cl)ccc21 (configuration not stated) :: 185
NC(=O)c1c(-c2ccccc2)n(C2=NNC(=S)NC2N)c2ccc([N+](=O)[O-])cc12 (configuration not stated) :: 125
CC(=O)c1c(-c2ccccc2)n(C2=NNC(=S)NC2N)c2ccc(F)cc12 (configuration not stated) :: 290

State the recorded TD50 for every item in the following list.
1. NC1NC(=S)NN=C1n1c(-c2ccccc2)c(C(=O)O)c2cc([N+](=O)[O-])ccc21 (configuration not stated)
2. CC(=O)c1c(-c2ccccc2)n(C2=NNC(=S)NC2N)c2ccc(C(F)(F)F)cc12 (configuration not stated)

Result ::
1. 180
2. 95
